tested on: 621-102 (TSC2-deficient); assay: relative viability vs DMSO; higher = less cytotoxic; conditions: 0.0001 µM; serum: 10% FBS; 72 h;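 also: immortalized renal angiomyolipoma cells stably carrying empty vector or TSC2, dosed in 384-well plates in DMEM, viability normalized to vehicle-treated wells within each plate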
Where a name gives a salt, the structure may show the parent alone.
endpoint-label: relative viability (%)
Please give a number only; it is taken to be in %.

[[record]]
molecule = "Cc1cc(Nc2nc(N[C@@H](C)c3ncc(F)cn3)ncc2Cl)[nH]n1"
assayed_target = "621-102 (TSC2-deficient)"
unit_name = "%"
observed_value = 104

[[record]]
molecule = "C[N+]1(C)[C@@H]2C[C@@H](OC(=O)C(O)(c3cccs3)c3cccs3)C[C@H]1[C@@H]1O[C@@H]12 [Tiotropium Bromide hydrate]"
assayed_target = "621-102 (TSC2-deficient)"
unit_name = "%"
observed_value = 119


Item: CN(C)CCCN1c2ccccc2CCc2ccc(Cl)cc21 [Clomipramine HCl] Test system: 621-102 (TSC2-deficient) Read-out: relative viability Value: ? 114

Lookup CCCCN1CCCCC1C(=O)Nc1c(C)cccc1C (stereo not given) [Bupivacaine HCl (marcain)] 97.4

Lookup O=C1CCc2cc(OCCCCc3nnnn3C3CCCCC3)ccc2N1 109

Lookup CO[C@@H](C(=O)N1Cc2[nH]nc(NC(=O)c3ccc(N4CCN(C)CC4)cc3)c2C1)c1ccccc1 105

Lookup Nc1cccc2c1C(=O)N(C1CCC(=O)NC1=O)C2=O (stereo not given) [Pomalidomide] 107

----------
tested on: 621-102 (TSC2-deficient); assay: relative viability vs DMSO; higher = less cytotoxic; conditions: 0.1 µM; serum: 10% FBS; 72 h
Structures can show the parent of a compound that is named as a salt.
endpoint-label: relative viability (%)
Please give a number only; it is taken to be in %.

Reference set, count: 5
[[record]]
molecule = "CC1(C)CNc2cc(NC(=O)c3cccnc3NCc3ccncc3)ccc21 [Motesanib DiPhosphate]"
assayed_target = "621-102 (TSC2-deficient)"
endpoint_label = "relative viability"
unit_name = "%"
observed_value = 110

[[record]]
molecule = "COc1cc(Nc2ncc(F)c(Nc3ccc4c(n3)NC(=O)C(C)(C)O4)n2)cc(OC)c1OC [R406 (free base)]"
assayed_target = "621-102 (TSC2-deficient)"
endpoint_label = "relative viability"
unit_name = "%"
observed_value = 105

[[record]]
molecule = "Cn1cc(-c2ccc3nnc(C(F)(F)c4ccc5ncccc5c4)n3n2)cn1"
assayed_target = "621-102 (TSC2-deficient)"
endpoint_label = "relative viability"
unit_name = "%"
observed_value = 95.7

[[record]]
molecule = "CN(C)CCCN1c2ccccc2CCc2ccc(Cl)cc21 [Clomipramine HCl]"
assayed_target = "621-102 (TSC2-deficient)"
endpoint_label = "relative viability"
unit_name = "%"
observed_value = 111

[[record]]
molecule = "OC(CNCC(O)C1CCc2cc(F)ccc2O1)C1CCc2cc(F)ccc2O1 (stereo not drawn) [Nebivolol HCl]"
assayed_target = "621-102 (TSC2-deficient)"
endpoint_label = "relative viability"
unit_name = "%"
observed_value = 118


Item: Cc1cc(Nc2nc(N[C@@H](C)c3ncc(F)cn3)ncc2Cl)[nH]n1 Test system: 621-102 (TSC2-deficient) Read-out: relative viability Value: ? 101

Lookup CN1CCN(c2c(F)cc3c(=O)c(C(=O)O)cn(CCF)c3c2F)CC1 91.5

Lookup COc1cc([C@@H]2c3cc4c(cc3[C@@H](O[C@@H]3O[C@@H]5CO[C@@H](C)O[C@H]5[C@H](O)[C@H]3O)[C@H]3COC(=O)[C@H]23)OCO4)cc(OC)c1O [Etoposide (Etopophos)] 104

----------
test system: 621-103 (TSC2-rescued); assay: relative viability vs DMSO; higher = less cytotoxic; conditions: 0.1 µM; serum: 10% FBS; 72 h
endpoint-label: relative viability (%)
Please give a number only; it is taken to be in %.

Reference set, count: 3
[[record]]
compound = "C/C(=C\\c1csc(C)n1)[C@@H]1C[C@@H]2O[C@]2(C)CCC[C@H](C)[C@H](O)[C@@H](C)C(=O)C(C)(C)[C@@H](O)CC(=O)O1 [Epothilone B (EPIO906)]"
endpoint_label = "relative viability"
unit_name = "%"
observed_value = 35.3

[[record]]
compound = "N#Cc1c(O)c2c(-c3ccc(-c4ccccc4O)cc3)csc2[nH]c1=O"
endpoint_label = "relative viability"
unit_name = "%"
observed_value = 97.2

[[record]]
compound = "CC(C)OC(=O)C1=CN(C(=O)c2ccc(F)c(F)c2)CC(C)(C)c2c1[nH]c1ccccc21"
endpoint_label = "relative viability"
unit_name = "%"
observed_value = 99


Could you tell me which relative viability is on file for CCOc1ccn(-c2ccc(F)cc2)c(=O)c1C(=O)Nc1ccc(Oc2ccnc(N)c2Cl)c(F)c1 ? 99.4

----------
tested on: 621-102 (TSC2-deficient); assay: relative viability vs DMSO; higher = less cytotoxic; conditions: 10 µM; serum: 10% FBS; 72 h
Structures can show the parent of a compound that is named as a salt.
endpoint-label: relative viability (%)
Please give a number only; it is taken to be in %.

Reference set, count: 3
[[record]]
molecule = "Cn1cc(CNCC2CCN(c3ncc(C(=O)NO)cn3)CC2)c2ccccc21"
endpoint_label = "relative viability"
observed_value = 18.1

[[record]]
molecule = "CN(C)CCCN1c2ccccc2Sc2ccc(Cl)cc21 [Chlorpromazine HCl]"
endpoint_label = "relative viability"
observed_value = 81.9

[[record]]
molecule = "O=C1[C@H](Cc2ccc(O)cc2)N2C(=O)CCN(C(=O)NCc3ccccc3)[C@H]2CN1Cc1cccc2ccccc12 [ICG-001]"
endpoint_label = "relative viability"
observed_value = 52.9


Could you tell me which relative viability is on file for CN1CCc2c(c3ccccc3n2Cc2ccc(C(=O)NO)cc2)C1 [Tubastatin A HCl] ? 75.4

Lookup CCC[C@H](Nc1nc(-c2ccc(NC(=O)NCC)c(OC)c2)ncc1C)c1cccnc1 [CYT997] 41

----------
system: 621-103 (TSC2-rescued); test: relative viability vs DMSO; higher = less cytotoxic; settings: 0.0001 µM; serum: 10% FBS; 72 h
Counter-ions that a name gives are not always drawn.
endpoint-label: relative viability (%)
Please give a number only; it is taken to be in %.

Could you tell me which relative viability is on file for CC1(COc2ccc3c(c2)ncn3-c2ccc3cccc(N4CCC(N)CC4)c3n2)COC1 ? 96

Lookup CCOc1ccn(-c2ccc(F)cc2)c(=O)c1C(=O)Nc1ccc(Oc2ccnc(N)c2Cl)c(F)c1 88.1

Lookup CC(C)C[C@@H](C=O)NC(=O)[C@H](CC(C)C)NC(=O)[C@H](CC(C)C)NC(=O)OCc1ccccc1 [MG-132] 99.8

Lookup CN1[C@@H]2CC[C@H]1C[C@@H](OC(=O)C(CO)c1ccccc1)C2 (some centres not stated) [Atropine sulfate monohydrate] 80.5

----------
The entries below are paired with their reported relative viability.
system: 621-103 (TSC2-rescued); test: relative viability vs DMSO; higher = less cytotoxic; settings: 0.001 µM; serum: 10% FBS; 72 h
Counter-ions that a name gives are not always drawn.
Don't forget the unit after the number, please.

Reference set, count: 6
[[record]]
compound = "CC(C)(C)c1cc(C(C)(C)C)c(NC(=O)c2c[nH]c3ccccc3c2=O)cc1O [VX-770]"
assayed_target = "621-103 (TSC2-rescued)"
endpoint_label = "relative viability"
observed_value = "117%"

[[record]]
compound = "CC1=C(C(=O)Nc2cc3cn[nH]c3cc2F)C(c2ccc(C(F)(F)F)cc2)CC(=O)N1 (stereo not given)"
assayed_target = "621-103 (TSC2-rescued)"
endpoint_label = "relative viability"
observed_value = "98.7%"

[[record]]
compound = "CCO[C@@H]1OC(=O)C[C@@H]1NC(=O)[C@@H]1CCCN1C(=O)[C@@H](NC(=O)c1ccc(N)c(Cl)c1)C(C)(C)C [VX-765]"
assayed_target = "621-103 (TSC2-rescued)"
endpoint_label = "relative viability"
observed_value = "95.9%"

[[record]]
compound = "O=C(O)CC[C@H]1CC[C@@](c2cc(F)ccc2F)(S(=O)(=O)c2ccc(Cl)cc2)CC1 [MK-0752]"
assayed_target = "621-103 (TSC2-rescued)"
endpoint_label = "relative viability"
observed_value = "108%"

[[record]]
compound = "Nc1nc(F)nc2c1ncn2[C@@H]1O[C@H](CO)[C@@H](O)[C@@H]1O [Fludarabine (Fludara)]"
assayed_target = "621-103 (TSC2-rescued)"
endpoint_label = "relative viability"
observed_value = "92.6%"

[[record]]
compound = "CCNC(=O)c1noc(-c2cc(C(C)C)c(O)cc2O)c1-c1ccc(CN2CCOCC2)cc1 [NVP-AUY922]"
assayed_target = "621-103 (TSC2-rescued)"
endpoint_label = "relative viability"
observed_value = "6.79%"


Could you tell me which relative viability is on file for O=C(CN1C(=O)C2(CCCC2)NC[C@H]1c1cc(F)cc(F)c1)Nc1ccc2c(c1)C[C@@]1(C2)C(=O)Nc2ncccc21 [MK 3207 hydrochloride] ? 103%

Lookup FC(F)c1nc2ccccc2n1-c1nc(N2CCOCC2)nc(N2CCOCC2)n1 [ZSTK474] 97%

Lookup CC(C)Cc1ccc(C(C)C(=O)O)cc1 (stereo not given) [Ibuprofen] 99.2%

Lookup COc1cc(N2CCC(N3CCN(C)CC3)CC2)ccc1Nc1ncc(Cl)c(Nc2ccccc2S(=O)(=O)C(C)C)n1 [NVP-TAE684] 99.6%

The reported numbers originate from the supplement of paper PMC8960247.
